- experimentalSystem: T1, human TREM2 (human, UniProt Q9NZC2 19-174, limits assumed)
- T1 sequence: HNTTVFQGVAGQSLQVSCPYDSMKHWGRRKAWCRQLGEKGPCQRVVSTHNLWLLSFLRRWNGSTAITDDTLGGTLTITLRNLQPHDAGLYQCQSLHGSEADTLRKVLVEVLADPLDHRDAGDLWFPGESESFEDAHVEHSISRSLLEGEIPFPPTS
- assayMethodText: yeast-displayed Fab FACS, 2nd screen 10 nM
Below is a list of entries, each paired with its recorded binding signal fold over 6E7 parental value.
Write the value in fold as a bare number.

binder | unitsText | binding signal fold over 6E7 parental
V51 (Fab, V domains shown) VH: EVQLVQSGAEVKKPGESLKISCKGSGYSFTSYWIAWVRQMPGKGLEWMGIIYPGDSDVRYSPSFQGQVTISADKSISTAYLQWSSLKASDTAMYFCARGRTFYYDSSDYFDNWGQGTLVTVSS VL: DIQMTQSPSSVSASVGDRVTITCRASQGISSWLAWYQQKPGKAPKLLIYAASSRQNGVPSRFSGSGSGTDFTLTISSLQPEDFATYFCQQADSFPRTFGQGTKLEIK | fold | 3.18
V74 (Fab, V domains shown) VH: EVQLVQSGAEVKKPGESLKISCKGSGYSFASYWIAWVRQMPGKGLEWMGIIYPGDSDVRYSPSFQGQVTISADKSISTAYLQWSSLKASDTAMYFCARGRTFYYDSSDYFDYWGQGTLVTVSS VL: DIQMTQSPSSVSASVGDRVTITCRASQGISSWLAWYQQKPGKAPKLLIYAASSLQLGVPSRFSGSGSGTDFTLTISSLQPEDFATYFCQQADSFPRTFGQGTKLEIK | fold | 4.01
V41 (Fab, V domains shown) VH: EVQLVQSGAEVKKPGESLKISCKGSGYSFTSYWIAWVRQMPGKGLEWMGTIYPGDSDTRYSPSFQGQVTISADKSISTAYLQWSSLKASDTAMYFCARQRTFYYDSSDYFDYWGQGTLVTVSS VL: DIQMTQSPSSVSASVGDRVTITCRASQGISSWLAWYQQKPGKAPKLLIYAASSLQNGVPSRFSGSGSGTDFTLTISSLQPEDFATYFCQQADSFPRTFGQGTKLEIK | fold | 1.72

Query: Report binding signal fold over 6E7 parental for V63 (Fab, V domains shown) VH: EVQLVQSGAEVKKPGESLKISCKGSGYSFRSYWIAWVRQMPGKGLEWMGIIYPGDSDTRYSPSFQGQVTISADKSISTAYLQWSSLKASDTAMYFCARSRTFYYDSSDYFDYWGQGTLVTVSS VL: DIQMTQSPSSVSASVGDRVTITCRASQGISSWLAWYQQKPGKAPKLLIYAASSLQRGVPSRFSGSGSGTDFTLTISSLQPEDFATYFCQQADRFPRTFGQGTKLEIK
Response: 3.71
